Taken from ChEMBL document CHEMBL3991601.

- TESTED ON: Dual specificity mitogen-activated protein kinase kinase 3 (Homo sapiens, UniProt P46734); note: in the data inactive means no Kd found up to 30 µM
- Sequence (P46734 whole entry): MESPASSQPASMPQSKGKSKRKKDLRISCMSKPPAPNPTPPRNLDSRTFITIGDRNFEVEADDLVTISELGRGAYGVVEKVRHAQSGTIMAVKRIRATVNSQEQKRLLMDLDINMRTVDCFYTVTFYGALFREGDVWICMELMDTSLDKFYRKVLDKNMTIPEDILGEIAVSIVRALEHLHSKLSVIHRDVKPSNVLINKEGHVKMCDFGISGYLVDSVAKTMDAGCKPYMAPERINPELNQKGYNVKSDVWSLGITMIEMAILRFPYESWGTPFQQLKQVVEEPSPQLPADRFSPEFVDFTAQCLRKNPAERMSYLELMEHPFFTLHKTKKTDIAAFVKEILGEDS
Structures can show the parent of a compound that is named as a salt. Active and inactive are the calls of the source.
Outcome codes: active, inactive

>>> discrete_label("NC(=O)Nc1cc(-c2cccc(F)c2)sc1C(=O)N[C@H]1CCCNC1")
"inactive"
>>> discrete_label("Cc1cc(C(=O)NOCCO)c(Nc2ccc(I)cc2F)n(C)c1=O")
"inactive"
>>> discrete_label("Cc1nc(NC(=O)N2CCC[C@H]2C(N)=O)sc1-c1ccnc(C(C)(C)C(F)(F)F)c1")
"inactive"
>>> discrete_label("CCNC(=O)C#Cc1ccc2c(c1)NC(=O)/C2=C(\\Nc1ccc(CN(C)C)cc1)c1ccccc1")
"inactive"
>>> discrete_label("Cc1csc(-c2nnc(Nc3ccc(Oc4ncccc4-c4ccnc(N)n4)cc3)c3ccccc23)c1")
"inactive"
>>> discrete_label("COc1cc([C@@H]2c3cc4c(cc3[C@H](O)[C@H]3COC(=O)[C@@H]23)OCO4)cc(OC)c1OC")
"inactive"
>>> discrete_label("CCOc1cc2ncc(C#N)c(Nc3ccc(F)c(Cl)c3)c2cc1NC(=O)/C=C/CN(C)C")
"inactive"
>>> discrete_label("Cn1ncc(Cl)c1-c1cc(C(=O)N[C@H](CN)Cc2ccc(F)c(F)c2)oc1Cl")
"inactive"
>>> discrete_label("C[C@@H](NC(=O)c1ncnc(N)c1Cl)c1ncc(C(=O)Nc2cc(C(F)(F)F)c(Cl)cn2)s1")
"inactive"
>>> discrete_label("Cn1cc(-c2cnc3ccc4ccc(CS(=O)(=O)NCc5ccccn5)cc4c(=O)c3c2)cn1")
"inactive"
>>> discrete_label("Cc1cc(Nc2ncc(Cl)c(Nc3ccccc3S(=O)(=O)C(C)C)n2)c(OC(C)C)cc1C1CCNCC1")
"inactive"
>>> discrete_label("CO[C@H]1C[C@@H]2CC[C@@H](C)[C@@](O)(O2)C(=O)C(=O)N2CCCC[C@H]2C(=O)O[C@H]([C@H](C)C[C@@H]2CC[C@@H](O)[C@H](OC)C2)CC(=O)[C@H](C)/C=C(\\C)[C@@H](O)[C@@H](OC)C(=O)[C@H](C)C[C@H](C)/C=C/C=C/C=C/1C")
"inactive"
>>> discrete_label("COc1ncc(-c2ccc3nccc(-c4ccnnc4)c3c2)cc1NS(=O)(=O)c1ccc(F)cc1F")
"inactive"
>>> discrete_label("CNC(=O)c1cc(Oc2ccc(NC(=O)Nc3cc(C(C)(C)C)nn3-c3ccc4ncccc4c3)c(F)c2)ccn1")
"inactive"
>>> discrete_label("CC(=O)c1cnc2ccc(-c3cc(Cl)c(O)c(Cl)c3)nc2c1N[C@H]1CC[C@H](CN(C)C)CC1")
"inactive"
>>> discrete_label("CCS(=O)(=O)N1CCN(c2ccc(Nc3ncc(C(N)=O)c(NC4CC4)n3)cc2)CC1 [Cerdulatinib Hydrochloride]")
"active"
>>> discrete_label("CNC(=O)c1nn(C)c2c1C(C)(C)Cc1cnc(Nc3ccc(N4CCN(C)CC4)cc3)nc1-2")
"inactive"
>>> discrete_label("CCn1cc(-c2ccnc3[nH]c(-c4cccc(CN(C)C)c4)cc23)c(-c2ccc(NC(=O)N(C)C)cc2)n1")
"inactive"
>>> discrete_label("CCCCCCCCCCCCCCCCCCOP(=O)([O-])OC1CC[N+](C)(C)CC1")
"inactive"
>>> discrete_label("N#CC1(c2ccc(NC(=O)c3cccnc3NCc3ccncc3)cc2)CCCC1")
"inactive"
>>> discrete_label("C[C@H]1CNCCCN1S(=O)(=O)c1cccc2cncc(F)c12")
"active"
>>> discrete_label("CN1C/C=C/CCOc2cccc(c2)-c2ccnc(n2)Nc2cccc(c2)C1")
"inactive"
>>> discrete_label("C#Cc1cccc(Nc2ncnc3cc(OC)c(OCCCCCCC(=O)NO)cc23)c1")
"inactive"
>>> discrete_label("CO[C@H]1C[C@@H]2CC[C@@H](C)[C@@](O)(O2)C(=O)C(=O)N2CCCC[C@H]2C(=O)O[C@H]([C@H](C)C[C@@H]2CC[C@@H](OC(=O)C(C)(CO)CO)[C@H](OC)C2)CC(=O)[C@H](C)/C=C(\\C)[C@@H](O)[C@@H](OC)C(=O)[C@H](C)C[C@H](C)/C=C/C=C/C=C/1C")
"inactive"
>>> discrete_label("O=C(Cc1ccc(-c2ccc(OCCN3CCOCC3)cc2)cn1)NCc1ccccc1")
"inactive"
>>> discrete_label("O=c1[nH]ccc2cc(OC3CCNCC3)ccc12 [SAR-407899 FREE BASE]")
"inactive"
>>> discrete_label("COc1cc2c(Nc3ccc(Cl)c(Cl)c3F)ncnc2cc1OC[C@@H]1C[C@@H]2CN(C)C[C@@H]2C1")
"inactive"
>>> discrete_label("O=C(Nc1nc2cccc(-c3ccc(CN4CCS(=O)(=O)CC4)cc3)n2n1)C1CC1")
"inactive"
>>> discrete_label("CCS(=O)(=O)c1cccc(-c2cc(C(=O)NC3CCN(C)CC3)c(C)c3[nH]c4ncc(C)cc4c23)c1")
"inactive"
>>> discrete_label("O=C1NC(=O)[C@@H](c2cn3c4c(cccc24)CCC3)[C@@H]1c1c[nH]c2ccccc12 [TIVANTINIB]")
"inactive"
